# TGT: T1, Dpo1 exo- (SsoDpo1, B-family DNA polymerase) (Sulfolobus solfataricus, UniProt P26811 1-882, D231A;D318A)
# T1 sequence: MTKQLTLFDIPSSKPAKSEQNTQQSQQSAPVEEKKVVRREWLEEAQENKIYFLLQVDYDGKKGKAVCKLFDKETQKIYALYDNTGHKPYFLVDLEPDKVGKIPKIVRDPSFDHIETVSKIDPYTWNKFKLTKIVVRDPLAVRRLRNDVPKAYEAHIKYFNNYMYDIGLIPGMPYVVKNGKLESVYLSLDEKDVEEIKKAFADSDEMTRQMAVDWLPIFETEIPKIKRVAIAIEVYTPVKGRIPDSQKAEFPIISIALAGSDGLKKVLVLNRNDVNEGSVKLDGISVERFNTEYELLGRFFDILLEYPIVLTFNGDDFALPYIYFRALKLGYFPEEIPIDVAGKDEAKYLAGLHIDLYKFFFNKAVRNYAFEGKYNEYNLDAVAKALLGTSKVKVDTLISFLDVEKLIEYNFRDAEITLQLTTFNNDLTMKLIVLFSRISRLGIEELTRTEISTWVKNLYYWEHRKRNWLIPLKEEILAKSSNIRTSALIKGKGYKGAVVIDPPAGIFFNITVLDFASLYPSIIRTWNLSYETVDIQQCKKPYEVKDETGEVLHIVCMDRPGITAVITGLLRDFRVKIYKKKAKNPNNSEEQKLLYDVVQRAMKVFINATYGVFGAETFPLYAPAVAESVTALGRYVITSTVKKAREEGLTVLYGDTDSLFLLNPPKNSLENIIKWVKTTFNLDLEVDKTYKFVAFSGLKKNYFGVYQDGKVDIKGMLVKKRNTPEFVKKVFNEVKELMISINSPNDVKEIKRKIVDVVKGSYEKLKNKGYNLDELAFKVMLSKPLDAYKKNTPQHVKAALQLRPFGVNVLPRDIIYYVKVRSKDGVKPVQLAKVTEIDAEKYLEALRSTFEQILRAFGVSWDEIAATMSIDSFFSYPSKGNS
# PROTOCOL NOTES: fluorescence anisotropy
TEST READOUT: pKd
Conceptually, pKd converts a concentration in mol/L into minus its log10.

Per the records, this binder ( TTTTTTTTTTCCCGGGCCGGCGTTTCGCCGGCCCGGG (structured_DNA) [37-nt hairpin primer-template, 5'-Cy3] ) has pKd equal to 6.49
